# target-under-test: AKT-3 (Homo sapiens, UniProt Q9Y243)
# Sequence (Q9Y243 whole entry): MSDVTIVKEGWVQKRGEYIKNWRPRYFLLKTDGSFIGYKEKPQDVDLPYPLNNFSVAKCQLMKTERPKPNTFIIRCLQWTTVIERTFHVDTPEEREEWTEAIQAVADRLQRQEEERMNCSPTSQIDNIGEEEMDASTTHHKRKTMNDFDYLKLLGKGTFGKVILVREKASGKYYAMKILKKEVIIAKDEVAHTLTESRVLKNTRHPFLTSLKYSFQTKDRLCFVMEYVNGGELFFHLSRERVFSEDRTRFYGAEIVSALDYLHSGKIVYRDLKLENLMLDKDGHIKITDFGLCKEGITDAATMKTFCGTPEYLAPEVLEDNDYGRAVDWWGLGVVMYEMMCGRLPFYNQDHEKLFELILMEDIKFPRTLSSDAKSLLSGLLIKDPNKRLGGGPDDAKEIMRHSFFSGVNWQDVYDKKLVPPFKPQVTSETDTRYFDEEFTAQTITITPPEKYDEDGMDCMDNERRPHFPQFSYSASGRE
pKi: −log10 of the molar value.
pKi values, listed per item

// solved cases for pKi follow
compound="NCCC(C(=O)Nc1ccc2[nH]nc(NC(=O)c3ccco3)c2c1)c1ccccc1 (centres unmarked) [Compound I-1041]" obs_value="5.00 to 6.00"
compound="CS(=O)(=O)c1cccc(C(=O)Nc2n[nH]c3ccc(NC(=O)C(CCN)c4ccc(Cl)c(Cl)c4)cc23)c1 (centres unmarked) [Compound I-221]" obs_value="> 6.00"
compound="N[C@@H](C(=O)Nc1ccc2[nH]ncc2c1)c1ccccc1 [Compound I-48]" obs_value="5.00 to 6.00"
compound="CCNc1ccc(C(=O)Nc2n[nH]c3ccc(NC(=O)C(CCN)c4ccc(Cl)c(Cl)c4)cc23)cc1 (centres unmarked) [Compound I-207]" obs_value="> 6.00"
compound="CC(=O)Nc1n[nH]c2ccc(NC(=O)C(CCN)c3ccc(Cl)c(Cl)c3)cc12 (centres unmarked) [Compound I-140]" obs_value="> 6.00"
compound="NCC(=O)NC(C(=O)Nc1ccc2[nH]ncc2c1)c1cccc(Cl)c1 (centres unmarked) [Compound I-74]" obs_value="> 6.00"
compound="CCc1cccc(C(CCN)C(=O)Nc2ccc3[nH]nc(C)c3c2)c1 (centres unmarked) [Compound I-135]" obs_value="> 6.00"

As a next step, examine the compound that follows.
Inquiry: Consider the compound N#Cc1cccc(Nc2n[nH]c3ccc(NC(=O)C(CCN)c4ccc(Cl)c(Cl)c4)cc23)c1 (centres unmarked) [Compound I-165] . State its measured pKi.
Reply text: > 6.00

====

pKi values, listed per item
# target-under-test: PDK-1 (Homo sapiens, UniProt O15530)
# Sequence (O15530 1-556): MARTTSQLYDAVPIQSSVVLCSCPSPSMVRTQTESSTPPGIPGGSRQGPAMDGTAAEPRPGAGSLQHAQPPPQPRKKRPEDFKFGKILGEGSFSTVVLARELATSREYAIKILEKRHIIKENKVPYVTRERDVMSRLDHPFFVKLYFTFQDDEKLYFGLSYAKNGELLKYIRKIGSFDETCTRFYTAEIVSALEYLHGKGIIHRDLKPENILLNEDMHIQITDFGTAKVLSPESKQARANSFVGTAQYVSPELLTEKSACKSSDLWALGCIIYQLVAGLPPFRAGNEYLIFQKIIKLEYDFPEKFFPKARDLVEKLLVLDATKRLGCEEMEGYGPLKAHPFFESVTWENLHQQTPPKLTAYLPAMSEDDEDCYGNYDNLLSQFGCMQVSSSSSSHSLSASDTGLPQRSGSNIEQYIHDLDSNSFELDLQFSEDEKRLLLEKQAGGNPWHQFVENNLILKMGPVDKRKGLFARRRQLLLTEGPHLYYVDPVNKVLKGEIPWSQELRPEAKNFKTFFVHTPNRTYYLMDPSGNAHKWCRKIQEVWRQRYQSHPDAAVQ
pKi: −log10 of the molar value.

molecule="NCCC(C(=O)Nc1ccc2[nH]nc(-c3ccccc3)c2c1)c1ccc(Cl)c(Cl)c1 (centres unmarked) [Compound I-119]" obs_value="> 6.00"
molecule="Cc1n[nH]c2ccc(NC(=O)C(CCN)c3cccc(CC(C)C)c3)cc12 (centres unmarked) [Compound I-142]" obs_value="< 5.52"
molecule="NCCC(C(=O)Nc1ccc2[nH]nc(NC(=O)c3ccc(Cl)c(Cl)c3)c2c1)c1ccc(Cl)c(Cl)c1 (centres unmarked) [Compound I-183]" obs_value="< 5.52"
molecule="NCCC(C(=O)Nc1ccc2[nH]nc(NC(=O)c3cccc(Oc4ccccc4)c3)c2c1)c1ccc(Cl)c(Cl)c1 (centres unmarked) [Compound I-178]" obs_value="< 5.52"
molecule="N#Cc1cccc(Nc2n[nH]c3ccc(NC(=O)[C@@H](CCN)c4ccccc4)cc23)c1 [Compound I-1055]" obs_value="5.52 to 6.00"

Inquiry: Consider the molecule COc1cccc(C(CCN)C(=O)Nc2ccc3[nH]nc(C)c3c2)c1 (centres unmarked) [Compound I-1018] . State its measured pKi.
Reply text: 5.52 to 6.00

Inquiry: Consider the molecule NCCC(C(=O)Nc1ccc2[nH]nc(-c3cccc(Cl)c3)c2c1)c1ccccc1 (centres unmarked) [Compound I-241] . State its measured pKi.
Reply text: > 6.00

Inquiry: Consider the molecule Cc1cccc(-c2n[nH]c3ccc(NC(=O)C(CCN)c4ccccc4)cc23)c1 (centres unmarked) [Compound I-238] . State its measured pKi.
Reply text: > 6.00

====

# target-under-test: PKA (Homo sapiens, UniProt P17612)
reported-endpoint: Ki

// solved cases for Ki follow
compound="NCCC(C(=O)Nc1ccc2[nH]nc(-c3cccc(F)c3)c2c1)c1ccc(Cl)c(Cl)c1 (centres unmarked)" obs_value="< 1000 nM"
compound="NCCC(C(=O)Nc1ccc2[nH]ncc2c1)c1cccc(Br)c1 (centres unmarked)" obs_value="< 1000 nM"
compound="NCCC(C(=O)Nc1ccc2[nH]ncc2c1)c1cc(C(F)(F)F)cc(C(F)(F)F)c1 (centres unmarked)" obs_value="< 1000 nM"

Inquiry: Look up and report Ki, with PKA (Homo sapiens, UniProt P17612) as system, for NCCC(C(=O)Nc1cc(Cl)c2[nH]ncc2c1)c1ccc(Cl)c(Cl)c1 (centres unmarked)
Reply text: < 1000 nM

Inquiry: Look up and report Ki, with PKA (Homo sapiens, UniProt P17612) as system, for Cc1n[nH]c2ccc(NC(=O)[C@H](CCN)c3cccc(Cl)c3F)cc12
Reply text: < 1000 nM

====

These molecules were tested on AKT-3 (Homo sapiens); Ki is the recorded read-out.

// solved cases for Ki follow
molecule="CNc1cccc(C(=O)Nc2n[nH]c3ccc(NC(=O)C(CCN)c4ccc(Cl)c(Cl)c4)cc23)c1 (stereo not shown) [Compound I-209]" reported_endpoint=Ki obs_value="< 1 µM"
molecule="NCCC(C(=O)Nc1ccc2[nH]nc(NC(=O)c3cccc(Cl)c3)c2c1)c1ccc(Cl)c(Cl)c1 (stereo not shown) [Compound I-160]" reported_endpoint=Ki obs_value="< 1 µM"
molecule="Cc1cccc(Nc2n[nH]c3ccc(NC(=O)C(CCN)c4ccccc4)cc23)c1 (stereo not shown) [Compound I-1038]" reported_endpoint=Ki obs_value="1 to 10 µM"

As a next step, examine the molecule that follows.
Inquiry: Consider the molecule NCC(C(=O)Nc1ccc2[nH]nc(-c3ccccc3)c2c1)c1ccc(Cl)c(Cl)c1 (stereo not shown) [Compound I-231] . State its measured Ki.
Reply text: < 1 µM

====

# target-under-test: AKT-3 (Homo sapiens)
reported-endpoint: Ki

molecule="NCCC(C(=O)Nc1ccc2[nH]nc(Nc3cccc(Cl)c3)c2c1)c1ccc(Cl)c(Cl)c1 (centres unmarked)" reported_endpoint=Ki obs_value="< 1 µM"
molecule="O=C(Nc1ccc2[nH]ncc2c1)C(NCCNCc1ccccc1)c1cccc(Cl)c1 (centres unmarked)" reported_endpoint=Ki obs_value="< 1 µM"
molecule="CCOc1cccc(C(=O)Nc2n[nH]c3ccc(NC(=O)C(CCN)c4ccc(Cl)c(Cl)c4)cc23)c1 (centres unmarked)" reported_endpoint=Ki obs_value="< 1 µM"

As a next step, examine the molecule that follows.
Inquiry: Look up and report Ki, with AKT-3 (Homo sapiens) as system, for NCC[C@@H](C(=O)Nc1ccc2[nH]nc(NC(=O)c3cccc(Cl)c3)c2c1)c1cccc(Cl)c1F
Reply text: < 1 µM

====

Ki values, listed per item
# target-under-test: AKT-3 (Homo sapiens, UniProt Q9Y243)

// solved cases for Ki follow
molecule="NCCC(C(=O)Nc1ccc2[nH]ncc2c1)c1ccccc1 (centres unmarked) [Compound I-98]" target_under_test="AKT-3 (Homo sapiens, UniProt Q9Y243)" reported_endpoint=Ki obs_value="< 1 µM"
molecule="NCCC(C(=O)Nc1ccc2[nH]nc(NC(=O)C3CCCCC3)c2c1)c1ccccc1 (centres unmarked) [Compound I-1050]" target_under_test="AKT-3 (Homo sapiens, UniProt Q9Y243)" reported_endpoint=Ki obs_value="1 to 10 µM"
molecule="COc1cccc(C(CCN)C(=O)Nc2ccc3[nH]nc(C)c3c2)c1 (centres unmarked) [Compound I-1018]" target_under_test="AKT-3 (Homo sapiens, UniProt Q9Y243)" reported_endpoint=Ki obs_value="1 to 10 µM"
molecule="NCCC(C(=O)Nc1ccc2[nH]ncc2c1)c1cc(C(F)(F)F)cc(C(F)(F)F)c1 (centres unmarked) [Compound I-105]" target_under_test="AKT-3 (Homo sapiens, UniProt Q9Y243)" reported_endpoint=Ki obs_value="< 1 µM"
molecule="NCCC(C(=O)Nc1ccc2[nH]nc(Cl)c2c1)c1ccc(Cl)c(Cl)c1 (centres unmarked) [Compound I-121]" target_under_test="AKT-3 (Homo sapiens, UniProt Q9Y243)" reported_endpoint=Ki obs_value="< 1 µM"

Inquiry: Look up and report Ki, with AKT-3 (Homo sapiens, UniProt Q9Y243) as system, for O=C(Nc1ccc2[nH]ncc2c1)C1(c2ccccc2)CCNCC1 [Compound I-156]
Reply text: 1 to 10 µM

Inquiry: Look up and report Ki, with AKT-3 (Homo sapiens, UniProt Q9Y243) as system, for Cc1n[nH]c2ccc(NC(=O)C(CCN)c3cccc(Cl)c3Cl)cc12 (centres unmarked) [Compound I-120]
Reply text: < 1 µM

Inquiry: Look up and report Ki, with AKT-3 (Homo sapiens, UniProt Q9Y243) as system, for NC[C@H](C(=O)Nc1ccc2[nH]ncc2c1)c1ccc(Cl)c(Cl)c1 [Compound I-243]
Reply text: < 1 µM

Inquiry: Look up and report Ki, with AKT-3 (Homo sapiens, UniProt Q9Y243) as system, for NCC[C@H](C(=O)Nc1ccc2[nH]nc(NC(=O)c3cccs3)c2c1)c1c(F)ccc(Cl)c1F [Compound I-1046]
Reply text: < 1 µM

Inquiry: Look up and report Ki, with AKT-3 (Homo sapiens, UniProt Q9Y243) as system, for NCCC(C(=O)Nc1cc(-c2ccccc2)c2[nH]ncc2c1)c1ccc(Cl)c(Cl)c1 (centres unmarked) [Compound I-150]
Reply text: 1 to 10 µM

Inquiry: Look up and report Ki, with AKT-3 (Homo sapiens, UniProt Q9Y243) as system, for NCCC(C(=O)Nc1ccc2[nH]nc(NC(=O)c3cccs3)c2c1)c1ccc(Cl)c(Cl)c1 (centres unmarked) [Compound I-169]
Reply text: < 1 µM

Inquiry: Look up and report Ki, with AKT-3 (Homo sapiens, UniProt Q9Y243) as system, for CCc1ccc(C(=O)Nc2n[nH]c3ccc(NC(=O)C(CCN)c4ccc(Cl)c(Cl)c4)cc23)cc1 (centres unmarked) [Compound I-187]
Reply text: < 1 µM
